# System: human brain tumor cells U251 MG NCI
# Test Description: MTT assay, polyamine analogs, U251 MG NCI
# Format: cell-based
# Condition: U-251, 144 h, read-out: concentration needed for 50% growth inhibition (ID50) U251MG, Table 2, MTT six days after drug treatment
Attribute Measured: IC50 (nM)
# value in nM; strip the unit string

Examples with answers:
GET /values?readout=IC50&item= "CCNCCCCNCc1ccccc1CNCCCCNCC"
14700

GET /values?readout=IC50&item= CCNCCCCNCC1CCC1CNCCCCNCC (stereo not shown)
110

GET /values?readout=IC50&item= "CCNCCCCNC/C=C\CNCCCCNCC"
150

GET /values?readout=IC50&item= CCNCCCCNCC1CC1CNCCCCNCC (stereo not shown)
100

GET /values?readout=IC50&item= CCNCCCNCC1CCCC1NCCCNCC (stereo not shown)
25900

// moving on: another record for IC50
GET /values?readout=IC50&item= "CCNC/C=C\CNC/C=C\CNC/C=C\CNCC"
2000
